Recorded below: IC50, system EGFR (human).
readout kind: IC50

1. CP1(=O)CCN(CC#Cc2ccc3ncnc(Nc4ccc5c(cnn5Cc5cccc(F)c5)c4)c3c2)CC1 : < 100 nM
2. CCN(CCP(C)(C)=O)Cc1ccc(-c2ccc3ncnc(Nc4ccc5c(cnn5Cc5cccc(F)c5)c4)c3c2)o1 : < 100 nM
3. CP1(=O)CCN(Cc2ccc(-c3ccc4ncnc(Nc5ccc(OCc6cccc(F)c6)c(Br)c5)c4c3)o2)CC1 : < 100 nM
4. COP(=O)(CCNCc1ccc(-c2ccc3ncnc(Nc4ccc(OCc5cccc(F)c5)c(Cl)c4)c3c2)o1)OC : < 100 nM
5. CC1(C)COP(=O)(CCNCc2ccc(-c3ccc4ncnc(Nc5ccc(OCc6cccc(F)c6)c(Cl)c5)c4c3)o2)OC1 : < 100 nM
6. CP1(=O)CCN(C/C=C/c2ccc3ncnc(Nc4ccc(OCc5cccc(F)c5)c(Cl)c4)c3c2)CC1 : < 100 nM
7. CP1(=O)CCN(Cc2ccc(-c3ccc4ncnc(Nc5ccc(OCc6cccc[n+]6[O-])c(Cl)c5)c4c3)o2)CC1 : < 100 nM
8. CCOP1(=O)CCN(Cc2ccc(-c3ccc4ncnc(Nc5ccc(OCc6cccc(F)c6)c(Cl)c5)c4c3)o2)CC1 : < 100 nM
